molecular target: OCT1 WT (Homo sapiens, UniProt O15245); assay: Uptake screening (transport ratio over empty vector), HEK293 cells overexpressing OCT1 WT; format: cell-based; set-up: expressed in transfected cells; conditions: uptake ratio over empty vector, HEK293 cells overexpressing OCT1 WT;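 note: intracellular substrate levels quantified by HPLC–tandem mass spectrometry after uptake in HBSS+ buffer at 37 °C, stable Flp-In HEK293 lines, fold change versus empty vector–transfected cells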
Doc: threshold 40 (exclusive). Items with Mean_transport_ratio_WT beneath it return t; others return f.

Some solved cases for reference:
# entry.smiles, discrete.label
records = [
    ("Nc1nc(=O)n([C@@H]2CS[C@H](CO)O2)cc1F", "t"),
    ("Cc1ncc(C[n+]2csc(CCO)c2C)c(N)n1", "f"),
    ("CC1(C)N=C(N)N=C(N)N1c1ccc(Cl)cc1", "t"),
    ("CC[N+](CC)(CC)CC(=O)Nc1c(C)cccc1C", "f"),
]

Note: attention shifts to another entry.
Input line: Take the compound "COc1cc2c(cc1OC)[C@H](C)NCC2" and say whether its Mean_transport_ratio_WT is less than 40.
Output line: t

###

target: OCT1 WT (Homo sapiens); assay: Uptake screening (transport ratio over empty vector), HEK293 cells overexpressing OCT1 WT; assay type: cell-based; parameters: expressed in transfected cells; details: uptake ratio of OCT1 WT-overexpressing HEK293 cells over empty vector
measurement.kind: Mean_transport_ratio_WT

Answered examples (5):
# compound, Mean_transport_ratio_WT
measured = [
    ("CN(C)CCc1ccc(O)cc1", 2.424),
    ("NCC(O)c1cccc(O)c1 (centres unmarked)", 2.898),
    ("CN(C)C(=O)Oc1cccc([N+](C)(C)C)c1", 51.144),
    ("CNC(=C[N+](=O)[O-])NCCSCc1csc(CN(C)C)n1", 4.961),
    ("Oc1ccc(CC2NCCc3cc(O)c(O)cc32)cc1 (centres unmarked)", 27.934),
]

Hi team, please reply with Mean_transport_ratio_WT for each item in this list.
1. CNC(C)Cc1ccc2c(c1)OCO2 (centres unmarked)
2. NCc1ccc(O)cc1 [Hydroxybenzylamin]
3. N=C(N)NC(=O)Cc1c(Cl)cccc1Cl
4. CNCCc1ccc(O)cc1

Output line:
1.723
2.288
3.273
6.673

Hi team, please reply with Mean_transport_ratio_WT for each item in this list.
1. C[N+]1(CCC(C(N)=O)(c2ccccc2)c2ccccc2)CCCCC1
2. Cc1ncccc1C(N)=O [Methylnicotinamide]

Output line:
1. 38.408
2. 3.894

###

target: OCT1 Phe244Ala variant (Homo sapiens, UniProt O15245, F244A); experiment: Uptake screening (transport ratio over empty vector), HEK293 cells overexpressing OCT1 Phe244Ala variant; type: cell-based; design: expressed in transfected cells; conditions: Phe244Ala uptake relative to OCT1 WT;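 note: stably transfected HEK293 cells, intracellular substrate quantified by HPLC-tandem mass spectrometry in cell lysates, uptake in HBSS+ buffer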
Binning of relative_Phe244Ala_uptake_in% into classes: lower: < 30%; middle: ≥ 30% and < 80%; upper: ≥ 80%

Some solved cases for reference:
# compound, discrete.label
records = [
    ("CC(C)NCC(O)c1ccc(O)c(O)c1 (stereo not shown)", "lower"),
    ("NCC(O)c1cccc(O)c1 (stereo not shown)", "middle"),
    ("CCOC(=O)c1ccc(OC(=O)CCCCCNC(=N)N)cc1 [Gabexate]", "upper"),
    ("CNC(=C[N+](=O)[O-])NCCSCc1csc(CN(C)C)n1", "lower"),
    ("Cc1ncc(C[n+]2csc(CCO)c2C)c(N)n1", "lower"),
]

Input line: Category of CC(CCc1ccc(O)cc1)NCC(O)c1ccc(O)cc1 (stereo not shown) :
Output line: upper

Input line: Category of CC(C)NCC(O)c1ccc(NS(C)(=O)=O)cc1 (stereo not shown) :
Output line: middle
